Attribution: PubChem BioAssay AID463173

Tested on: DeltatarO mutant
Test: S. aureus survival, RN4220 and DeltatarO strains – OD600, teichoic acid synthesis inhibitors, primary screen (AID 463173)
Details: S. aureus RN4220 wild type/DeltatarO growth, OD600, 18 h, active compounds read low, screened at 18.75 µg/mL (by protocol)
Hit rate of the full screen: of about 52,000 compounds, about 4,300 (8.3%) were called active. Only a selection was taken, and actives are over-represented in it overall.

compound | tgt | result units | survival
COc1cc(Cl)c(NC(=O)CCS(=O)(=O)c2ccc3c(c2)NC(=O)CO3)c(OC)c1 | DeltatarO mutant | % | 90
Cc1ccc2c(Sc3ccc(Cl)cc3)c(C(=O)N3CCC(C)CC3)[nH]c2c1 | DeltatarO mutant | % | 69
COC(=O)CNC(=O)c1cc2sccc2n1Cc1ccccc1 | DeltatarO mutant | % | 97
COc1cccc(NC(=O)CN(C)S(=O)(=O)c2cccs2)c1 | DeltatarO mutant | % | 108
CCOC(=O)C1CCCN(C(=O)c2ccc3c(c2)N(Cc2ccc(Cl)cc2)C(=O)c2ccccc2S3=O)C1 (stereo not drawn) | DeltatarO mutant | % | 60
CSc1nc2sc3c(c2c(=O)n1-c1ccccc1)CCC(C(C)(C)C)C3 (stereo not drawn) | DeltatarO mutant | % | 18
O=[N+]([O-])c1cc(-c2nc(-c3ccncc3)no2)ccc1NCc1ccccc1 | DeltatarO mutant | % | 109
Cc1ccc(Nc2nc3ccccc3c3nnc(C)n23)c(C)c1 | DeltatarO mutant | % | 70
COCCCNC(=O)c1ccc(Cn2c(=O)c3ccccc3n(Cc3ccc(Cl)cc3)c2=O)cc1 | DeltatarO mutant | % | 89
Cc1ccc(-c2nc3sc(CCNC(=O)c4ccco4)c(C)n3n2)cc1 | DeltatarO mutant | % | 87
COC(=O)c1cc2sc(Cl)cc2n1Cc1nc(-c2ccc(OC)cc2)oc1C | DeltatarO mutant | % | 72
CCCc1nc2sc3c(c2c(=O)n1N)CCCC3 | DeltatarO mutant | % | 97
COc1ccccc1CNc1ccc(-c2nc(-c3ccccc3C)no2)cc1[N+](=O)[O-] | DeltatarO mutant | % | 91
C=C(C)CSc1nc2sc3c(c2c(=O)n1-c1ccccc1)CCC(C)C3 (stereo not drawn) | DeltatarO mutant | % | 84
CCOC(=O)c1ccc(NC(=O)Cc2coc3cc(C)cc(C)c23)cc1 | DeltatarO mutant | % | 60
Cc1cc(C)n(C(C)CC(=O)Nc2cccc(C#N)c2)n1 (stereo not drawn) | DeltatarO mutant | % | 78
CN(C)c1ccc(-c2nc3ccccn3c2Nc2ccc3c(c2)OCCO3)cc1 | DeltatarO mutant | % | 81
Cc1cc(C)cc(NC(=O)Cc2noc3ccccc23)c1 | DeltatarO mutant | % | 54
